System: A549
assay: Antiproliferative activity against human A549 cells harboring […] assessed as inhibition of cell growth incubated for 5 days by crystal violet staining analysis
Format: functional, cell-based
test settings: Homo sapiens, A549, 120 h
pIC50: −log10 of the molar value.
assay endpoint: pIC50

Recorded results for 2 compounds are shown here.
- compound: "[2H]C1([2H])CCC2(C([2H])([2H])Oc3nc(N4C[C@H]5CC[C@@H](C4)N5)c4cnc(-c5cc(O)cc6ccc(F)c(C#C)c56)c(F)c4n3)CC(=C)CN12 (some centres not stated)"
  endpoint result: 5.77
- compound: "[2H]C([2H])(Oc1nc(N2C[C@H]3CC[C@@H](C2)N3)c2cnc(-c3cc(O)cc4ccc(F)c(C#C)c34)c(F)c2n1)C12CCCN1CC(=C(F)F)C2 (some centres not stated)"
  endpoint result: 6.48

P = [2H]C([2H])(Oc1nc(N2C[C@H]3CC[C@@H](C2)N3)c2cnc(-c3cc(N)cc4ccc(F)c(C#C)c34)c(F)c2n1)C12CCCN1CC(=C(F)F)C2 (some centres not stated)
Q = [2H]C([2H])(Oc1nc(NCC2(N(C)C)CCC2)c2cnc(-c3cc(O)cc4ccc(F)c(C#C)c34)c(F)c2n1)C12CCCN1CC(=C(F)F)C2 (configuration not stated)
R = [2H]C([2H])(Oc1nc(N2C[C@H]3CC[C@@H](C2)N3)c2cnc(-c3cc(N)cc4cccc(C#C)c34)c(F)c2n1)C12CCCN1CC(=C(F)F)C2 (some centres not stated)
S = C#Cc1c(F)ccc2cc(O)cc(-c3ncc4c(N5C[C@H]6CC[C@@H](C5)N6)nc(OC(C)C56CCCN5CC(=C)C6)nc4c3F)c12 (some centres not stated)
[Q] # desc sort on pIC50 across 4 compounds List each label, following the requested order.
[A] Q, P, R, S

###

assay: Half life in Sprague-Dawley rat at 1 mg/kg,iv measured upto 24 hrs by LC-MS/MS analysis
Format: ADME, organism-based
test settings: in vivo
assay endpoint: half-life (h)

Recorded results for 3 compounds are shown here.
- compound: "[2H]C([2H])(Oc1nc(NCC2(N(C)C)CCC2)c2cnc(-c3cc(O)cc4ccc(F)c(C#C)c34)c(F)c2n1)C12CCCN1CC(=C(F)F)C2 (stereo not given)"
  half-life (h): 6.91
- compound: "[2H]C([2H])(Oc1nc(N2C[C@H]3CC[C@@H](C2)N3)c2cnc(-c3cc(N)cc4ccc(F)c(C#C)c34)c(F)c2n1)C12CCCN1CC(=C(F)F)C2 (stereo not given in full)"
  half-life (h): 11
- compound: "[2H]C([2H])(Oc1nc(NCC2(N(C)C)CCC2)c2cnc(-c3cc(N)cc4ccc(F)c(C#C)c34)c(F)c2n1)C12CCCN1CC(=C(F)F)C2 (stereo not given)"
  half-life (h): 9.42

I = [2H]C([2H])(Oc1nc(N2C[C@H]3CC[C@@H](C2)N3)c2cnc(-c3cc(O)cc4ccc(F)c(C#C)c34)c(F)c2n1)C12CCCN1CC(=C(F)F)C2 (stereo not given in full)
II = C#Cc1c(F)ccc2cc(O)cc(-c3ncc4c(N5C[C@H]6CC[C@@H](C5)N6)nc(OC[C@@]56CCCN5C[C@H](F)C6)nc4c3F)c12
[Q] Name the one with the greater half-life value, either I or II as given. // caller expects the label of the chosen entry
[A] II
(II: 1.1 h, I: 0.307 h)
